# TEST_TARGET: recombinant human plasminogen activator inhibitor-1 (PAI-1) (Homo sapiens, UniProt P05121)
# Construct: purchased Molecular Innovations, Royal Oak, Mich
# Sequence (P05121 24-402): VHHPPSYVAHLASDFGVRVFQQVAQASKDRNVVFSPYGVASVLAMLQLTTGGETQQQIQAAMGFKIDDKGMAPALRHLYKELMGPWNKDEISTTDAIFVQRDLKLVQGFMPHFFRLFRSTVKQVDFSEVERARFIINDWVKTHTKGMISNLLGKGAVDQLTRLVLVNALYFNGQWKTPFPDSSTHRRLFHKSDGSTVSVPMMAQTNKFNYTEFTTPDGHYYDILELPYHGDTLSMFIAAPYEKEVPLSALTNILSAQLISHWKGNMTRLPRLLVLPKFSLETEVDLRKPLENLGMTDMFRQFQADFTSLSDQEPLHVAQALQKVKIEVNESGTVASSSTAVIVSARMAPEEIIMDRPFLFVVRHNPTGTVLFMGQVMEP
# ASSAY_SUMMARY: Primary screen for PAI-1 inhibition (chromogenic tPA activity, Spectrozyme-tPA)
# Format: biochemical
# TEST_CONTEXT: test compound 25 μM; 140 nM PAI-1, 70 nM tPA, pH 6.6
REPORTED_METRIC: inhibition at 25 µM (%)

O=C(O)c1ccc(COc2ccc3cc(-c4ccc(-c5ccccc5)n4Cc4ccc(C(F)(F)F)cc4)ccc3c2)c(C(=O)O)c1 [Example 16]    63
O=C(O)C(Cc1ccccc1)Oc1ccc2cc(-c3ccc(-c4ccccc4)n3Cc3ccc(C(F)(F)F)cc3)ccc2c1 (stereo not shown) [Example 8]    62
O=C(O)COc1ccc2cc(-c3ccc(-c4ccccc4)n3Cc3ccc(C(F)(F)F)cc3)ccc2c1 [Example 10]    55
O=C(O)c1ccc(COc2ccc3cc(-c4ccc(-c5ccccc5)n4-c4ccccc4)ccc3c2)cc1 [Example 15]    68

(a) c1ccc(-c2ccc(-c3ccc4cc(OCc5nnn[nH]5)ccc4c3)n2-c2ccccc2)cc1 [Example 11]
(b) O=C(O)c1ccc(COc2ccc3cc(-c4ccc(-c5ccccc5)[nH]4)ccc3c2)c(C(=O)O)c1 [Example 17]
Problem: For this pair, a and b , which shows a numerically higher inhibition at 25 µM? # respond with the chosen item's label
Result: a
(a: 68%, b: 44%)

====

REPORTED_METRIC: melting point

Cn1c(-c2ccccc2)ccc1-c1ccc2cc(OC(Cc3ccccc3)C(=O)O)ccc2c1 (stereo not shown)    171 to 173 °C

Problem: // returns reported melting point for input O=C(O)C(Cc1ccccc1)Oc1ccc2cc(-c3ccc(-c4ccccc4)n3Cc3ccc(C(F)(F)F)cc3)ccc2c1 (stereo not shown)
Result: 153 to 155 °C

Problem: c1ccc(Cn2c(-c3ccccc3)ccc2-c2ccc3cc(OCc4nnn[nH]4)ccc3c2)cc1 ?
Result: 190 to 200 °C (dec.)

Problem: Record: O=C(O)c1ccc(COc2ccc3cc(-c4ccc(-c5ccccc5)n4Cc4ccc(C(F)(F)F)cc4)ccc3c2)c(C(=O)O)c1
Result: 250 to 252 °C

====

Collected melting point values appear next to each entry.

Recorded results for 3 molecules are shown here.
O=C(O)c1ccc(COc2ccc3cc(-c4ccc(-c5ccccc5)n4Cc4ccc(C(F)(F)F)cc4)ccc3c2)cc1 [Example 14]    228 to 229 °C
O=C(O)COc1ccc2cc(-c3ccc(-c4ccccc4)n3-c3ccccc3)ccc2c1 [Example 12]    258 to 260 °C (dec.)
O=C(O)C(Cc1ccccc1)Oc1ccc2cc(-c3ccc(-c4ccccc4)n3Cc3ccccc3)ccc2c1 (centres unmarked) [Example 2]    70 to 80 °C

Problem: Value lookup for melting point; key = Cn1c(-c2ccccc2)ccc1-c1ccc2cc(OCc3nnn[nH]3)ccc2c1 [Example 5]
Result: 231 to 233 °C (dec.)

Problem: What about this molecule? O=C(O)C(Cc1ccccc1)Oc1ccc2cc(-c3ccc(-c4ccccc4)n3-c3ccccc3)ccc2c1 (centres unmarked) [Example 13]
Result: 194 to 196 °C (dec.)

====

# TEST_TARGET: recombinant human plasminogen activator inhibitor-1 (PAI-1) (Homo sapiens, UniProt P05121)
# Construct: purchased Molecular Innovations, Royal Oak, Mich
# ASSAY_SUMMARY: Primary screen for PAI-1 inhibition (chromogenic tPA activity, Spectrozyme-tPA)
# Assay type: biochemical
# TEST_CONTEXT: test compound 25 μM; 140 nM PAI-1, 70 nM tPA, pH 6.6
REPORTED_METRIC: inhibition at 25 µM (%)

Consider the reported inhibition at 25 µM for these molecules:
O=C(O)COc1ccc2cc(-c3ccc(-c4ccccc4)n3-c3ccccc3)ccc2c1    58
O=C(O)C(Cc1ccccc1)Oc1ccc2cc(-c3ccc(-c4ccccc4)[nH]3)ccc2c1 (stereo not shown)    78
FC(F)(F)c1ccc(Cn2c(-c3ccccc3)ccc2-c2ccc3cc(OCc4nnn[nH]4)ccc3c2)cc1    49
O=C(O)c1ccc(COc2ccc3cc(-c4ccc(-c5ccccc5)n4Cc4ccc(C(F)(F)F)cc4)ccc3c2)cc1    31
O=C(O)COc1ccc2cc(-c3ccc(-c4ccccc4)n3Cc3ccccc3)ccc2c1    74

(1) O=C(O)C(Cc1ccccc1)Oc1ccc2cc(-c3ccc(-c4ccccc4)n3-c3ccccc3)ccc2c1 (stereo not shown)
(2) Cn1c(-c2ccccc2)ccc1-c1ccc2cc(OCc3nnn[nH]3)ccc2c1
Problem: Could you please tell me which of these two has the higher inhibition at 25 µM: 1 or 2 ? Mark your answer with the label of the selected entry.
Result: 1
(1: 60%, 2: 32%)

Where do these numbers come from? They come from patent US7186749B2.
